# assay_method_text: MTT-ESTA assay of cell metabolic activity, 2D HDF cultures
# Assay type: cell-based, human
# condition_description: human, normal human dermal fibroblasts (HDF), 2D monolayer culture, Treatment 10^−6; 24 h exposure; HDF
# Experimental: Normal human fibroblasts were isolated and cultured as described previously (Ralston et al., 1997). […] Keratinocytes were cultured in Dulbecco's modified Eagle's medium (DMEM) supplemented with 10% (v/v) foetal calf serum (FCS), 2 mM glutamine, 0.625 μg/ml amphotericin B, 100 IU/ml penicillin and 100 μg/ml streptomycin.
assay_metric: viability at 24 h (%)
Write down the numeric answer in % and omit the unit.

Suppose we examine the compound CC(C)Cc1ccc(C(C)C(=O)[O-])cc1.[Na+] (stereo not shown) [Ibuprofen Sodium Salt] ; what viability at 24 h value has been reported?
102
